- System: KM12 colon
- test: NCI-60 one-dose screen, 48 h
- assay.conditions: 10 µM
This is part of a sample that, as a whole, favours compounds with a hit. Of some 83,000 tested, about 20% had one in any assay. Active and inactive are the calls of the source. The calls were made as follows: active = growth percent below 10; inactive = the rest.
Possible outcomes: t (active), f (inactive)

smiles.code: Cc1ccc2[nH]c(=S)n(-c3ccc(F)cc3)c(=O)c2c1
discrete.label: f

smiles.code: COc1cc(OC)c(S(=O)(=O)N(CCCl)CCCl)cc1C(=O)/C=C/c1cc(OC)c(OC)c(OC)c1
discrete.label: t

smiles.code: CC12CCC3(CCC(=O)NCCCNc4ccnc5cc(Cl)ccc45)[C@@](C)(OO[C@]3(C)O1)O2
discrete.label: t

smiles.code: O=C(NC([Se])=NC1CCCCC1)c1ccc2c(c1)OCO2
discrete.label: f

smiles.code: COc1cc(OC)c(/C=C/C(=O)c2nc3ccccc3n2Cc2ccc(F)cc2)c(OC)c1
discrete.label: f

* * *

- Test system: HOP-62 NSCLC
- test: NCI-60 one-dose screen, 48 h
- assay.conditions: 10 µM
The panel holds about 83,000 compounds, 20% with a hit somewhere; the sample as a whole holds those more often. Calls of active or inactive are those of the source. How the source made its calls: active means growth percent below 10; inactive means the rest.
Possible outcomes: active, inactive

compound: CC[C@]12C=CCN3CC[C@@]4(c5ccc(OC)cc5N(C)[C@H]4[C@@](O)(C(=O)OC)[C@@H]1OC(=O)CCC[P+](c1ccc(C)cc1)(c1ccc(C)cc1)c1ccc(C)cc1)[C@@H]32
discrete.label: active
--
compound: O=C(/C=C/c1ccccc1)c1nc2ccccc2n1Cc1ccc(Br)cc1
discrete.label: active
--
compound: O=C(/C=C/c1ccccc1Cl)c1nc2ccccc2n1Cc1ccc(F)cc1
discrete.label: active
--
compound: COc1ccc(/C=C/C(=O)c2nc3ccccc3n2Cc2ccc(Br)cc2)cc1
discrete.label: inactive
--
compound: O=C(NCCCCC(c1ccc(F)cc1)c1ccc(F)cc1)Nc1ccc([N+](=O)[O-])c(C(F)(F)F)c1
discrete.label: active
--
compound: O=C(/C=C/c1cccc(Br)c1)c1nc2ccccc2n1Cc1ccc(F)cc1
discrete.label: inactive
--
compound: Cc1c2oc3c(C)ccc(C(=O)N[C@@H]4C(=O)N[C@H](C(C)C)C(=O)N5CCC[C@H]5C(=O)N(C)CC(=O)N(C)[C@@H](C(C)C)C(=O)OC4C)c3nc-2c(C(=O)N[C@@H]2C(=O)N[C@H](C(C)C)C(=O)N3CC(=O)C[C@H]3C(=O)N(C)CC(=O)N(C)[C@@H](C(C)C)C(=O)OC2C)c(N)c1=O (some centres not stated)
discrete.label: active

* * *

- System: OVCAR-5 ovarian
- test: NCI-60 one-dose screen, 48 h (100 = growth as untreated, 0 = no growth, -100 = all killed)
- assay.conditions: 10 µM
The panel holds about 83,000 compounds, 20% with a hit somewhere; the sample as a whole holds those more often.

compound: O=C(/C=C/c1ccccc1)c1nc2ccccc2n1Cc1ccc(F)cc1
growth, %: -15.1

compound: C=CCN=C([Se])NC(=O)c1ccc2c(c1)OCO2
growth, %: 117

compound: CC12OOC(C)(OO1)C2CCC(=O)OCCNc1ccnc2cc(Cl)ccc12 (configuration not stated)
growth, %: 94.7

compound: C[C@H]1[C@@H](CC(=O)N[C@@H](Cc2coc3ccccc23)B(O)O)O[C@@H]2OC3(C)CC[C@H]4[C@H](C)CC[C@@H]1[C@@]24OO3
growth, %: -57.1

compound: C#CC[Se]C(=O)c1ccc2n[se]nc2c1
growth, %: 75.7

compound: C#CCCCN(CCNc1ccnc2cc(Cl)ccc12)C(=O)CCC(=O)O[C@@H]1O[C@@H]2OC3(C)CC[C@H]4[C@H](C)CC[C@@H]([C@H]1C)[C@@]24OO3
growth, %: 45.1

compound: COc1cc2cc(C(=O)N3C[C@@H](CCl)c4c3cc(OC(=O)N3CCN(C)[C@@H]5CSSC[C@@H]53)c3ccccc43)[nH]c2c(OC)c1OC
growth, %: -6.69
